pIC50 for assorted compounds
protocol: Inhibition of recombinant GGTase 2 (unknown origin) using recombinant Rab1A and [3H]GGPP as substrate after 20 mins in presence of recombinant REP-2 by liquid scintillation counting analysis
Parameters: species or system Homo sapiens
Please report pIC50 as the negative decimal logarithm of the molar concentration, giving only the number.

Recorded pIC50, per entry:
O=C(O)C(Cc1cccnc1)P(=O)(O)O (centres undefined) = 2.96
O=C(O)C(Cc1ccc[n+]([O-])c1)P(=O)(O)O (centres undefined) = 3.10
O=C(O)C(O)(Cc1ccc[n+]([O-])c1)P(=O)(O)O (centres undefined) = 2.74

Query compound follows.
The compound listed as O=C(O)C(O)(Cc1cccnc1)P(=O)(O)O (centres undefined) shows pIC50 equal to 3.15

----------
System: RPMI-8226
protocol: Inhibition of GGTase 2 in human RPMI8226 cells assessed as reduction in membrane bound Rab6 protein at 5 mM incubated for 48 hrs by immunoblot method
Assay type: cell-based
Activity calls are given as the source filed them. The calls are words filed in the database; no cut-off is given here.
Allowed answers: TRUE (active), FALSE (inactive)

Take a look at these entries with their results.
O=C(O)C(Cc1ccc[n+]([O-])c1)P(=O)(O)O (centres undefined) = FALSE
O=C(O)C(O)(Cc1cccnc1)P(=O)(O)O (centres undefined) = TRUE
O=C(O)C(Cc1cccnc1)P(=O)(O)O (centres undefined) = TRUE

QUERY: State the result this test recorded for O=C(O)C(O)(Cc1ccc[n+]([O-])c1)P(=O)(O)O (centres undefined) .
RESULT: TRUE

----------
Test system: RPMI-8226
protocol: Inhibition of GGTase 2 in human RPMI8226 cells assessed as disruption of monoclonal protein trafficking by measuring accumulation of intracellular lambda light chain at 5 mM incubated for 48 hrs by ELISA
Assay type: cell-based
Activity calls are given as the source filed them. The rule behind the calls is not given here.
Allowed answers: 1 (yes) = active, 0 (no) = inactive

Take a look at these entries with their results.
O=C(O)C(Cc1ccc[n+]([O-])c1)P(=O)(O)O (centres undefined) = 0 (no)
O=C(O)C(O)(Cc1ccc[n+]([O-])c1)P(=O)(O)O (centres undefined) = 1 (yes)
O=C(O)C(O)(Cc1cccnc1)P(=O)(O)O (centres undefined) = 1 (yes)

Would you kindly look at the next entry?
QUERY: State the result this test recorded for O=C(O)C(Cc1cccnc1)P(=O)(O)O (centres undefined) .
RESULT: 0 (no)

----------
IC50 for assorted molecules
testSystem: Farnesyl pyrophosphate synthase (Homo sapiens)
Sequence (P14324 whole entry): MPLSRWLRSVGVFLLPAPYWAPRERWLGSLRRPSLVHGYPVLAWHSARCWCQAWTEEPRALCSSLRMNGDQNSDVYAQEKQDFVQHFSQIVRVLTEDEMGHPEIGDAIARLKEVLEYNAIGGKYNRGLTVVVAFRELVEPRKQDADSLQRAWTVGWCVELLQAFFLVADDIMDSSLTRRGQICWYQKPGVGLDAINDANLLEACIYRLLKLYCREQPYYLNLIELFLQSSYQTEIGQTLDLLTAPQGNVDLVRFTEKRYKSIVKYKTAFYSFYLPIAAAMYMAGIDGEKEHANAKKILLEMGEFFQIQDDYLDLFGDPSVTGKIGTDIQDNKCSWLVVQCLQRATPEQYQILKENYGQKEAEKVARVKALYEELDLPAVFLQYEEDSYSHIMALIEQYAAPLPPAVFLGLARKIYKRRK
protocol: Inhibition of recombinant FDPS (unknown origin) assessed as decrease in […] level using GPP and [14C]IPP as substrate treated with enzyme for 10 mins prior to substrate challenge for 30 mins by liquid scintillation counting analysis
The answer is to be given in µM; state only the numeric part.

Recorded IC50, per entry:
O=C(O)C(O)(Cc1cccnc1)P(=O)(O)O (centres undefined) = 200
O=C(O)C(O)(Cc1ccc[n+]([O-])c1)P(=O)(O)O (centres undefined) = 2000

Query molecule follows.
The molecule listed as O=C(O)C(Cc1cccnc1)P(=O)(O)O (centres undefined) shows IC50 equal to 1000
